system: Nucleic Acid; test: Binding affinity to c-myc quadruplex DNA by two site-mode surface plasmon resonance analysis; assay type: nucleic-acid assay
Below, each entry is listed with its recorded Kb.
Put your answer as a value accompanied by its unit after it.

Guide cases for Kb, answers given:
Item `CC1(C)C(/C=C/C(Br)=C/C=C2/N(CCC[N+](C)(C)C)c3ccccc3C2(C)C)=[N+](CCC[N+](C)(C)C)c2ccccc21` has what recorded Kb?
0.07 ×10⁶ /M

Please look up its Kb: `CC1(C)C(/C=C/C(Br)=C/C=C2/N(CCC[N+](C)(C)C)c3ccc(Cl)cc3C2(C)C)=[N+](CCC[N+](C)(C)C)c2ccc(Cl)cc21`
0.25 ×10⁶ /M

---
Can you look up the measured Kb of `CC1(C)C(/C=C/C=C/C=C2/N(CCC[N+](C)(C)C)c3ccc(Br)cc3C2(C)C)=[N+](CCC[N+](C)(C)C)c2ccc(Br)cc21` for me?
3.6 ×10⁶ /M

* * *

system: Nucleic Acid; test: Binding affinity to c-myc quadruplex DNA by two site-mode surface plasmon resonance analysis; assay type: nucleic-acid assay
EXPERIMENTAL_READOUT: Kb

Please review the entries below; each comes with its answer.
Query (molecule): `CC1(C)C(/C=C/C(Cl)=C/C=C2/N(CCC[N+](C)(C)C)c3ccccc3C2(C)C)=[N+](CCC[N+](C)(C)C)c2ccccc21` ; field requested: Kb
0.6 ×10⁶ /M

Quick one: Kb of `CC1(C)C(/C=C/C(Br)=C/C=C2/N(CCC[N+](C)(C)C)c3ccc(Br)cc3C2(C)C)=[N+](CCC[N+](C)(C)C)c2ccc(Br)cc21` ?
2 ×10⁶ /M

Quick one: Kb for `CC1(C)C(/C=C/C(Cl)=C/C=C2/N(CCC[N+](C)(C)C)c3ccc(Br)cc3C2(C)C)=[N+](CCC[N+](C)(C)C)c2ccc(Br)cc21` ?
0.2 ×10⁶ /M

Others:
Value lookup for Kb; key = `CC1(C)C(/C=C/C(Cl)=C/C=C2/N(CCC[N+](C)(C)C)c3ccc(Cl)cc3C2(C)C)=[N+](CCC[N+](C)(C)C)c2ccc(Cl)cc21`
0.23 ×10⁶ /M

// Kb lookup, key: `CC1(C)C(/C=C/C=C/C=C2/N(CCC[N+](C)(C)C)c3ccccc3C2(C)C)=[N+](CCC[N+](C)(C)C)c2ccccc21`
0.07 ×10⁶ /M

* * *

tested on: Nucleic Acid; test: Binding affinity to duplex DNA at 6:1 compound to DNA ratio by UV-spectrometer; assay type: nucleic-acid assay
EXPERIMENTAL_READOUT: ΔTm (°C)
Value expressed in °C; do not type the unit.

Solved cases (5 shown):
Quick one: ΔTm of `CC1(C)C(/C=C/C(Cl)=C/C=C2/N(CCC[N+](C)(C)C)c3ccccc3C2(C)C)=[N+](CCC[N+](C)(C)C)c2ccccc21` ?
2.8

Quick one: ΔTm for `CC1(C)C(/C=C/C(Cl)=C/C=C2/N(CCC[N+](C)(C)C)c3ccc(Br)cc3C2(C)C)=[N+](CCC[N+](C)(C)C)c2ccc(Br)cc21` ?
2.5

Given `CC1(C)C(/C=C/C=C/C=C2/N(CCC[N+](C)(C)C)c3ccc(Cl)cc3C2(C)C)=[N+](CCC[N+](C)(C)C)c2ccc(Cl)cc21` , state its recorded ΔTm.
0.5

Which ΔTm value is on record for `CC1(C)C(/C=C/C(Br)=C/C=C2/N(CCC[N+](C)(C)C)c3ccc(Br)cc3C2(C)C)=[N+](CCC[N+](C)(C)C)c2ccc(Br)cc21` ?
1.2

// query ΔTm value for entry `CC1(C)C(/C=C/C(Cl)=C/C=C2/N(CCC[N+](C)(C)C)c3ccc(Cl)cc3C2(C)C)=[N+](CCC[N+](C)(C)C)c2ccc(Cl)cc21`
2.3

---
Returns the measured ΔTm for the input compound. Input: `CC1(C)C(/C=C/C(Br)=C/C=C2/N(CCC[N+](C)(C)C)c3ccccc3C2(C)C)=[N+](CCC[N+](C)(C)C)c2ccccc21`
0.1
